System: Colletotrichum fragariae
assay: Antifungal activity against Colletotrichum fragariae assessed as size of growth inhibitory zone at concentration of 2 mM in volume of 4 ul of acetone measured after 4 days by TLC based direct bioautography assay
Type: functional
quantity_measured: Activity (mm)
Write down the numeric answer in mm and omit the unit.

[
  {
    "compound": "C=C1CCC2CC1C2(C)C (stereo not drawn) [BETA-PINENE]",
    "target_or_test_system": "Colletotrichum fragariae",
    "Activity, mm": 0
  },
  {
    "compound": "CC(C)=CCC[C@](C)(O)[C@@H]1CC=C(C)CC1 (relative stereo) [LEVOMENOL]",
    "target_or_test_system": "Colletotrichum fragariae",
    "Activity, mm": 6.5
  },
  {
    "compound": "C=C1C=CC(C(C)C)CC1 (stereo not drawn) [BETA-PHELLANDRENE]",
    "target_or_test_system": "Colletotrichum fragariae",
    "Activity, mm": 0
  }
]

Value of measured Activity for the entry CCCCCCCCCCCCCCCC(=O)O [PALMITIC ACID] : 0

Value of measured Activity for the entry C=C1CCC[C@]2(C)CC[C@@H](C(C)(C)O)C[C@@H]12 [BETA-EUDESMOL] : 0
